# tested-on: IDO (Homo sapiens, UniProt P14902)
# Sequence (P14902 whole entry): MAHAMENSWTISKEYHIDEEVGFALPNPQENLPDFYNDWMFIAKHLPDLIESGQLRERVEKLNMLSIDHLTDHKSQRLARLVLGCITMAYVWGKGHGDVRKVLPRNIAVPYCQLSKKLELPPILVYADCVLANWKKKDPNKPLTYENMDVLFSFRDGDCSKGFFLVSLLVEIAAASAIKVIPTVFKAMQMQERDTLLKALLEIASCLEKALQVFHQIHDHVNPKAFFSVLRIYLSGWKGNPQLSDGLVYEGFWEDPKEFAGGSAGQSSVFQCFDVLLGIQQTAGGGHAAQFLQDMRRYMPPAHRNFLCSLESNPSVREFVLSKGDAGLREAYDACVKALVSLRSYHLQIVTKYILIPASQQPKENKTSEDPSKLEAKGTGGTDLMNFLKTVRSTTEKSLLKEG
# protocol-text: hIDO biochemical coupled assay
# condition-summary: 45 μM L-tryptophan, 17 minutes, room temperature; read-out: hIDO biochemical assay pIC50 (converted)
Reported IC50 values are given for each entry in this list.

Before answering, review these 4 worked examples.
> print(dat)
                              line.notation        obs.value
1  O=C1NCC2(CCN(c3cc(Cl)cc4[nH]ncc34)CC2)O1  3.24 to 31.6 µM
2  CS(=O)(=O)N1CCN(C2CCN(c3cc(Cl)cc4[nH]ncc34)CC2)CC1  3.24 to 31.6 µM
3  CC(=O)N1CCC2(CC1)CCN(c1cc(Cl)cc3[nH]ncc13)CC2  3.24 to 31.6 µM
4  CC(=O)N1CCC(c2cc(OC(F)(F)F)cc3[nH]ncc23)CC1         > 100 µM

Entry `CS(=O)(=O)N1CCN(c2cc(F)cc3[nH]ncc23)CC1` has what IC50? > 100 µM

And then `CN(c1cc(C2CCN(S(C)(=O)=O)CC2)c2cn[nH]c2c1)S(C)(=O)=O` , what is it? > 100 µM

And then `CS(=O)(=O)Nc1ccc(C2CCN(c3cc(Cl)cc4[nH]ncc34)CC2)cc1` , what is it? 3.24 to 31.6 µM

And then `CS(=O)(=O)NC1CCN(c2cc(Cl)cc3[nH]ncc23)CC1` , what is it? 3.24 to 31.6 µM

And then `Clc1cc(N2CCCCC2)c2cn[nH]c2c1` , what is it? 32.4 to 100 µM

And then `Cc1cc(C2CCN(S(C)(=O)=O)CC2)c2cn[nH]c2c1` , what is it? < 3.16 µM

And then `CC(=O)N1CCN(c2cc(Cl)cc3c(N)n[nH]c23)CC1(C)C` , what is it? < 3.16 µM
